- test_method_notes: Human plasma protein binding (equilibrium dialysis)
- Assay type: in vitro ADME
- stated_conditions: dialysis 18 hours
Consider the following compounds; for each one, report its Human plasma protein binding (% free).
Express your answer in % free, writing the number without its unit.

The value of Human plasma protein binding (% free) measured for the compound Cc1c(OCCNCCCF)ncnc1[C@@H]1c2[nH]c3ccccc3c2C[C@@H](C)N1CC(F)(F)F turned out to be 1.7

The value of Human plasma protein binding (% free) measured for the compound C[C@@H]1Cc2c([nH]c3ccc(F)cc23)[C@@H](c2c(F)cnc(OCCN(C)CCCF)c2F)N1CC(F)(F)CO turned out to be 1.6

The value of Human plasma protein binding (% free) measured for the compound C[C@@H]1Cc2c([nH]c3ccccc23)[C@@H](c2c(Cl)ccc(OCCNCCCF)c2Cl)N1C[C@H](C)C(=O)O turned out to be 15
